biological target: AT1 receptor (Rattus norvegicus, UniProt P25095); construct: Rat liver membranes were prepared according to the method of Dudley et al; from tissue; host or cells: rat liver membranes; assay: Rat liver membrane AT1 receptor binding assay ([125I]-Ang II displacement); details: displacement of [125I]-Ang II, rat liver membranes; means ± SE, triplicate; read-out: Ki (nM) AT1R
Sequence (P25095 whole entry): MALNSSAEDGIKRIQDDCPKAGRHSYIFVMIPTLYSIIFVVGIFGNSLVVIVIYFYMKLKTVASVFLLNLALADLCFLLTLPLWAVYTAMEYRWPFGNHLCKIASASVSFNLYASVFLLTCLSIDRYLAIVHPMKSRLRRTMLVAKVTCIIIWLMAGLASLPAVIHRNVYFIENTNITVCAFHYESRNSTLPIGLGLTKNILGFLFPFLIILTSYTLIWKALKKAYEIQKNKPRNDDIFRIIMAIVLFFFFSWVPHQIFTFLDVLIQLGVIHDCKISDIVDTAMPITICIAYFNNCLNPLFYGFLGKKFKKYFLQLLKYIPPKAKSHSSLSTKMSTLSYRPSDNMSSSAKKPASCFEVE
// classify: if (Ki < 1000 nM) T else F

[
  {
    "Chemical structure": "CC(C)COC(=O)NS(=O)(=O)c1ccc(CC(C)C)cc1-c1cccc(Cn2cncn2)c1",
    "Category label": "F"
  },
  {
    "Chemical structure": "CCCCC(=O)NS(=O)(=O)c1ccc(CCCC)cc1-c1cccc(Cn2cccn2)c1",
    "Category label": "T"
  },
  {
    "Chemical structure": "CCCCOc1ccc(S(=O)(=O)NC(=O)OC(C)C)c(-c2cccc(Cn3cncn3)c2)c1",
    "Category label": "F"
  },
  {
    "Chemical structure": "CCCCC(=O)NS(=O)(=O)c1ccc(CC(C)C)cc1-c1cccc(Cn2cncn2)c1",
    "Category label": "T"
  },
  {
    "Chemical structure": "CCCCOc1ccc(S(=O)(=O)NC(=O)OCC(C)C)c(-c2cccc(Cn3cncn3)c2)c1",
    "Category label": "T"
  },
  {
    "Chemical structure": "CCCCOC(=O)NS(=O)(=O)c1ccc(CCCC)cc1-c1cccc(Cn2cncn2)c1",
    "Category label": "F"
  },
  {
    "Chemical structure": "CCCCc1ccc(S(=O)(=O)NC(=O)OC(C)C)c(-c2cccc(Cn3cncn3)c2)c1",
    "Category label": "F"
  },
  {
    "Chemical structure": "CCCCC(=O)NS(=O)(=O)c1ccc(CC(C)C)cc1-c1cccc(Cn2cccn2)c1",
    "Category label": "F"
  }
]
